- experimental target: SARS-CoV-2 spike receptor-binding domain, Delta variant (amino acids 331-529), biotinylated (SARS-CoV-2, Delta, L452R | T478K, biotin (RBD expression vector co-expressed with BirA-Flag, 100 μM biotin added))
- assay info: BLI
- condition info: both partners purified
Reported koff values for a set of binders
measured attribute: koff (s⁻¹)

binder: NIV-8 Fab (Fab, V domains shown) VH: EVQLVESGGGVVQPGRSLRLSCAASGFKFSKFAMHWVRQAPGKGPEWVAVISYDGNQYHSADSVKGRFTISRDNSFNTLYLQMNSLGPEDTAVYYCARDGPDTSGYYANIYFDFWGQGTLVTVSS VL: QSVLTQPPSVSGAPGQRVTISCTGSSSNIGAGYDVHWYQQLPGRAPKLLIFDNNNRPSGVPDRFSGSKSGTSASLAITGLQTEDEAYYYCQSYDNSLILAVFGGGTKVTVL
measured attribute: koff
assay result: 1.28e-06
--
binder: NIV-10 Fab (Fab, V domains shown) VH: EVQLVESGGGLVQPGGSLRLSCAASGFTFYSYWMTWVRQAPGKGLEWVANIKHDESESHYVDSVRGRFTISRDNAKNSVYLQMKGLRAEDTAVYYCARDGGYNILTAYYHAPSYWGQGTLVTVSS VL: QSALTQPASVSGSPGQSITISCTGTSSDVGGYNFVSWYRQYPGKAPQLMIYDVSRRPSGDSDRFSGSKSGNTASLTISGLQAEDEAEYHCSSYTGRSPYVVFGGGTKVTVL
measured attribute: koff
assay result: 1.31e-06
--
binder: NIV-13 Fab (Fab, V domains shown) VH: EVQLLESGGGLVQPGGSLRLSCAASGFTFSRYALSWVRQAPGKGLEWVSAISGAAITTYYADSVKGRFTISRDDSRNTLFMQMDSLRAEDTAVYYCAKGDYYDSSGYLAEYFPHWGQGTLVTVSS VL: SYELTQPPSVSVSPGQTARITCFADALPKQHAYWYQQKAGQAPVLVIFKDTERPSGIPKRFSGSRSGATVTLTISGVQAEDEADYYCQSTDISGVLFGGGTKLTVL
measured attribute: koff
assay result: 3.72e-05
--
binder: NIV-11 Fab (Fab, V domains shown) VH: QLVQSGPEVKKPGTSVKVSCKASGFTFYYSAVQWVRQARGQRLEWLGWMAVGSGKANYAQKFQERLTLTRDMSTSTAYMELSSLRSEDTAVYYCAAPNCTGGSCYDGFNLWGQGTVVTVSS VL: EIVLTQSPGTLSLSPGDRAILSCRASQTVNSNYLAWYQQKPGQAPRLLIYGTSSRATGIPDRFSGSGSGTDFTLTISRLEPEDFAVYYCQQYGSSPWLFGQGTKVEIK
measured attribute: koff
assay result: 5.08e-07

// data source = paper PMC10349087
